Test system: 454973-116-R2-J3-PDC complex spheroid viability
Measurement description: Anticancer human tumor 454973-116-R2-J3-PDC patient-derived pancreatic carcinoma cell line growth inhibition [POLQ]
Condition parameters: second compound 3.16 µM; first compound 0.0316 µM; active compounds read low
This listing pairs compounds with measured viability, T/C.
All answers are understood in %, so give the number only.

// solved cases for viability, T/C follow
| Compound | viability, T/C (%) |
| --- | --- |
| C#Cc1c(F)ccc2cc(O)cc(-c3ncc4c(N5CC6CCC(C5)N6)nc(OCC56CCCN5CC(F)C6)nc4c3F)c12 (stereo not drawn) + Cc1cccc(N(C)C(=O)C2C(O)CCN2c2nc(C)cc(C(F)(F)F)c2C#N)c1 | 52.9 |
| CNCc1ccc(-c2[nH]c3cc(F)cc4c3c2CCNC4=O)cc1 + COC1C(OC(N)=O)C(O)C(Oc2ccc3c(O)c(NC(=O)c4ccc(O)c(CC=C(C)C)c4)c(=O)oc3c2C)OC1(C)C | 112 |

Okay, now this compound:
Exam item: Look up viability, T/C for this compound: CC1COCCN1c1cc(C2(O)CC3CCC(C2)O3)c2cnn(-c3ccn[nH]3)c2n1 (stereo not drawn) + Nc1ccc(C#CCN(C(=O)Cc2ncc(C(F)(F)F)cc2C(F)(F)F)c2ccc(F)cc2)nn1
Marked response: 88.1

---

Test system: 454973-116-R2-J3-PDC complex spheroid viability
Measurement description: Anticancer human tumor 454973-116-R2-J3-PDC cell line growth inhibition [POLQ]
Condition parameters: second compound 1 µM; first compound 3.16 µM; active compounds read low
Measurement label: viability, T/C (%)
All answers are understood in %, so give the number only.

// solved cases for viability, T/C follow
| Compound | Scale unit | viability, T/C |
| --- | --- | --- |
| CC1COCCN1c1cc(C2(S(C)(=N)=O)CC2)nc(-c2ccnc3[nH]ccc23)n1 (stereo not given) + COC1C(OC(N)=O)C(O)C(Oc2ccc3c(O)c(NC(=O)c4ccc(O)c(CC=C(C)C)c4)c(=O)oc3c2C)OC1(C)C | % | 68.2 |
| CC1COCCN1c1cc(C2(O)CC3CCC(C2)O3)c2cnn(-c3ccn[nH]3)c2n1 (stereo not given) + Nc1ccc(C#CCN(C(=O)Cc2ncc(C(F)(F)F)cc2C(F)(F)F)c2ccc(F)cc2)nn1 | % | 13.4 |
| CNCc1ccc(-c2[nH]c3cc(F)cc4c3c2CCNC4=O)cc1 + Cc1cccc(N(C)C(=O)C2C(O)CCN2c2nc(C)cc(C(F)(F)F)c2C#N)c1 | % | 100 |

Exam item: Look up viability, T/C for this compound: COc1cc(C2c3cc4c(cc3C(OC3OC5COC(C)OC5C(O)C3O)C3COC(=O)C23)OCO4)cc(OC)c1O (stereo not given) + Nc1ccc(C#CCN(C(=O)Cc2ncc(C(F)(F)F)cc2C(F)(F)F)c2ccc(F)cc2)nn1
Marked response: 12.8

Exam item: Look up viability, T/C for this compound: CC1COCCN1c1cc(-c2ccnn2C)c2ccnc(-c3ccn[nH]3)c2n1 (stereo not given) + Cc1cccc(N(C)C(=O)C2C(O)CCN2c2nc(C)cc(C(F)(F)F)c2C#N)c1
Marked response: 22

---

Tested on: 454973-116-R2-J3-PDC complex spheroid viability
Measurement description: Anticancer human tumor 454973-116-R2-J3-PDC cell line growth inhibition [POLQ];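 also: spheroids exposed to drugs for seven days before measurement; percent viability relative to DMSO vehicle control wells taken as 100%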
Condition parameters: second compound 0.1 µM; first compound 3.16 µM; active compounds read low
Description: Multicellular complex tumor spheroid response to Polymerase (POL) inhibitors (novobiocin, ART-558, RP6685) in combination with a variety of drugs and investigational agents in selected tumor cell lines The POL inhibitors (novobiocin, ART-558, and RP6685) were evaluated both individually and in combination with standard of care and investigational anticancer small molecules within a complex spheroid model of solid tumors. . […]
Quick rule for you: viability, T/C under 70% gets Yes, anything else gets No.

Exam item: Is viability, T/C strictly under 70% for the entry CC1COCCN1c1cc(-c2ccnn2C)c2ccnc(-c3ccn[nH]3)c2n1 (stereo unspecified) + COC1C(OC(N)=O)C(O)C(Oc2ccc3c(O)c(NC(=O)c4ccc(O)c(CC=C(C)C)c4)c(=O)oc3c2C)OC1(C)C ?
Marked response: Yes

Exam item: Is viability, T/C strictly under 70% for the entry O=C(Nc1ccc(O)c(NS(=O)(=O)c2ccc(F)cc2)c1)c1ccc(-c2ccccc2)cc1 + Nc1ccc(C#CCN(C(=O)Cc2ncc(C(F)(F)F)cc2C(F)(F)F)c2ccc(F)cc2)nn1 ?
Marked response: No

Exam item: Is viability, T/C strictly under 70% for the entry C#Cc1c(F)ccc2cc(O)cc(-c3ncc4c(N5CC6CCC(C5)N6)nc(OCC56CCCN5CC(F)C6)nc4c3F)c12 (stereo unspecified) + Nc1ccc(C#CCN(C(=O)Cc2ncc(C(F)(F)F)cc2C(F)(F)F)c2ccc(F)cc2)nn1 ?
Marked response: Yes

Exam item: Is viability, T/C strictly under 70% for the entry CCCS(=O)(=O)Nc1ccc(F)c(C(=O)c2c[nH]c3ncc(-c4ccc(Cl)cc4)cc23)c1F + COC1C(OC(N)=O)C(O)C(Oc2ccc3c(O)c(NC(=O)c4ccc(O)c(CC=C(C)C)c4)c(=O)oc3c2C)OC1(C)C ?
Marked response: No

Exam item: Is viability, T/C strictly under 70% for the entry COc1cc(C2c3cc4c(cc3C(OC3OC5COC(C)OC5C(O)C3O)C3COC(=O)C23)OCO4)cc(OC)c1O (stereo unspecified) + COC1C(OC(N)=O)C(O)C(Oc2ccc3c(O)c(NC(=O)c4ccc(O)c(CC=C(C)C)c4)c(=O)oc3c2C)OC1(C)C ?
Marked response: Yes

---

System: 454973-116-R2-J3-PDC complex spheroid viability
Measurement description: Anticancer human tumor 454973-116-R2-J3-PDC cell line growth inhibition [POLQ];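 also: spheroids exposed to drugs for seven days before measurement; percent viability relative to DMSO vehicle control wells taken as 100%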
Condition parameters: second compound 3.16 µM; first compound 0.1 µM; active compounds read low
This listing pairs compounds with measured viability, T/C.
All answers are understood in %, so give the number only.

// solved cases for viability, T/C follow
| Compound | viability, T/C, % |
| --- | --- |
| COc1cc2cc(C(=O)CCC(=O)O)sc2cc1OC + Nc1ccc(C#CCN(C(=O)Cc2ncc(C(F)(F)F)cc2C(F)(F)F)c2ccc(F)cc2)nn1 | 110 |
| CC(C)n1c(=O)n(C)c2cnc3cc(F)c(-c4ccc(OCCCN5CCCCC5)nc4)cc3c21 + Cc1cccc(N(C)C(=O)C2C(O)CCN2c2nc(C)cc(C(F)(F)F)c2C#N)c1 | 106 |

Okay, now this compound:
Exam item: Write down the reported viability, T/C of O=c1[nH]cc(F)c(=O)[nH]1 + Cc1cccc(N(C)C(=O)C2C(O)CCN2c2nc(C)cc(C(F)(F)F)c2C#N)c1 , test system: 454973-116-R2-J3-PDC complex spheroid viability.
Marked response: 118

---

This listing pairs molecules with measured viability, T/C.
System: 454973-116-R2-J3-PDC complex spheroid viability
Measurement description: Anticancer human tumor 454973-116-R2-J3-PDC cell line growth inhibition [POLQ];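 also: spheroids exposed to drugs for seven days before measurement; percent viability relative to DMSO vehicle control wells taken as 100%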
Condition parameters: second compound 3.16 µM; first compound 0.316 µM; active compounds read low
All answers are understood in %, so give the number only.

// solved cases for viability, T/C follow
| Molecule | System tested | Scale unit | viability, T/C |
| --- | --- | --- | --- |
| O=c1[nH]cc(F)c(=O)[nH]1 + COC1C(OC(N)=O)C(O)C(Oc2ccc3c(O)c(NC(=O)c4ccc(O)c(CC=C(C)C)c4)c(=O)oc3c2C)OC1(C)C | 454973-116-R2-J3-PDC complex spheroid viability | % | 113 |
| C#Cc1c(F)ccc2cc(O)cc(-c3ncc4c(N5CC6CCC(C5)N6)nc(OCC56CCCN5CC(F)C6)nc4c3F)c12 (stereo not drawn) + Nc1ccc(C#CCN(C(=O)Cc2ncc(C(F)(F)F)cc2C(F)(F)F)c2ccc(F)cc2)nn1 | 454973-116-R2-J3-PDC complex spheroid viability | % | 25.6 |

Exam item: Look up viability, T/C for this molecule: CCc1cc2c(N3CCc4c(cc(Cn5ccnc5)cc4-c4cn(C)nc4C(F)(F)F)C3=O)cc(C)nc2c(OC)n1 + COC1C(OC(N)=O)C(O)C(Oc2ccc3c(O)c(NC(=O)c4ccc(O)c(CC=C(C)C)c4)c(=O)oc3c2C)OC1(C)C
Marked response: 93.9

---

Test system: 454973-116-R2-J3-PDC complex spheroid viability
Measurement description: Anticancer human tumor 454973-116-R2-J3-PDC cell line growth inhibition [POLQ];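 also: spheroids exposed to drugs for seven days before measurement; percent viability relative to DMSO vehicle control wells taken as 100%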
Condition parameters: second compound 3.16 µM; first compound 0.00316 µM; active compounds read low
This listing pairs compounds with measured viability, T/C.

| Compound | Measurement label | Value |
| --- | --- | --- |
| C=CCn1c(=O)c2cnc(Nc3ccc(N4CCN(C)CC4)cc3)nc2n1-c1cccc(C(C)(C)O)n1 + COC1C(OC(N)=O)C(O)C(Oc2ccc3c(O)c(NC(=O)c4ccc(O)c(CC=C(C)C)c4)c(=O)oc3c2C)OC1(C)C | viability, T/C | 104% |
| CC[C@@]1(O)C(=O)OCc2c1cc1n(c2=O)Cc2cc3c(CN(C)C)c(O)ccc3nc2-1 + COC1C(OC(N)=O)C(O)C(Oc2ccc3c(O)c(NC(=O)c4ccc(O)c(CC=C(C)C)c4)c(=O)oc3c2C)OC1(C)C | viability, T/C | 107% |

Okay, now this compound:
Exam item: Write down the reported viability, T/C of COc1cccc(OCCCN)c1-c1cc(Nc2cnc(C#N)cn2)n[nH]1 + Cc1cccc(N(C)C(=O)C2C(O)CCN2c2nc(C)cc(C(F)(F)F)c2C#N)c1 , test system: 454973-116-R2-J3-PDC complex spheroid viability.
Marked response: 112%
